- TARGET UNDER TEST: F protein of wild type RSV A/Long (respiratory syncytial virus strain …, UniProt P12568 26-574)
- Sequence (P12568 26-574): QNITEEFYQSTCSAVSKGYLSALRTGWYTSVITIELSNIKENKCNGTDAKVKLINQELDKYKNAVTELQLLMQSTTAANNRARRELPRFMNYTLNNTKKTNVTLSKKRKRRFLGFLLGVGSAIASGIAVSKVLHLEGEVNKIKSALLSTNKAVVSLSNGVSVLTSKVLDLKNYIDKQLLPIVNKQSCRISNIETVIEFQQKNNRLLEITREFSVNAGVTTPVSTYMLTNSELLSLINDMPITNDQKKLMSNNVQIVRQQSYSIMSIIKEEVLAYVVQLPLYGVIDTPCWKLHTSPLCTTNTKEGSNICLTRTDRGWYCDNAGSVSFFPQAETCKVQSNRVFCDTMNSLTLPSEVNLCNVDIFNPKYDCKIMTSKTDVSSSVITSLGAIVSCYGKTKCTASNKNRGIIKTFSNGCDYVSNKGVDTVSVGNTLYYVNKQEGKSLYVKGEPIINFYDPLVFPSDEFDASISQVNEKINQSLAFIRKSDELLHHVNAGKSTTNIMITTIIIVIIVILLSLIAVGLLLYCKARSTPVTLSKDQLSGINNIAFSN
- ASSAY COMMENT: cell-based or functional assay
Reported Mean IC50 (Control), RSV microneutralization values for a set of binders
Numeric answer only, unit µg/mL assumed.

SYNAGIS® (monoclonal antibody) (antibody, V domains shown, also called SYNAGIS ®/SYNAGIS ® (HC/LC)) VH: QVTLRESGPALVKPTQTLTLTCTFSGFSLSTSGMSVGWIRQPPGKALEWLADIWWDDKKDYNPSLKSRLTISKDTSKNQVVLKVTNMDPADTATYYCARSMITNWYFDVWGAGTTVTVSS VL: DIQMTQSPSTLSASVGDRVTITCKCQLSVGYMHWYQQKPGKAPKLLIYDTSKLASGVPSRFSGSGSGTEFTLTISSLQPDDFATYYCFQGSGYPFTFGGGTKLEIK    0.535

From here, focus on the item given below.
The binder listed as P11d4 (monoclonal antibody) (antibody, V domains shown, mAb with framework and constant regions of SYNAGIS) VH: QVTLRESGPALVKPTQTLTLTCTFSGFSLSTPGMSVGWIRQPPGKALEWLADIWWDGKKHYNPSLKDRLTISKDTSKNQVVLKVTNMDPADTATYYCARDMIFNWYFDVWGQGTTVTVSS VL: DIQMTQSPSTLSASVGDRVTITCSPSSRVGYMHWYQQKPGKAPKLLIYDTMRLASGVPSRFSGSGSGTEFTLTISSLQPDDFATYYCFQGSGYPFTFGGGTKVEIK shows Mean IC50 (Control), RSV microneutralization equal to 0.0289
